This collection of values is drawn from the supplement of paper PMC3545927.

- Target desc: furin, P09958;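 also: purified furin at 1:10 enzyme:substrate in 50 mM HEPES pH 7.5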
- Sequence (P09958 whole entry): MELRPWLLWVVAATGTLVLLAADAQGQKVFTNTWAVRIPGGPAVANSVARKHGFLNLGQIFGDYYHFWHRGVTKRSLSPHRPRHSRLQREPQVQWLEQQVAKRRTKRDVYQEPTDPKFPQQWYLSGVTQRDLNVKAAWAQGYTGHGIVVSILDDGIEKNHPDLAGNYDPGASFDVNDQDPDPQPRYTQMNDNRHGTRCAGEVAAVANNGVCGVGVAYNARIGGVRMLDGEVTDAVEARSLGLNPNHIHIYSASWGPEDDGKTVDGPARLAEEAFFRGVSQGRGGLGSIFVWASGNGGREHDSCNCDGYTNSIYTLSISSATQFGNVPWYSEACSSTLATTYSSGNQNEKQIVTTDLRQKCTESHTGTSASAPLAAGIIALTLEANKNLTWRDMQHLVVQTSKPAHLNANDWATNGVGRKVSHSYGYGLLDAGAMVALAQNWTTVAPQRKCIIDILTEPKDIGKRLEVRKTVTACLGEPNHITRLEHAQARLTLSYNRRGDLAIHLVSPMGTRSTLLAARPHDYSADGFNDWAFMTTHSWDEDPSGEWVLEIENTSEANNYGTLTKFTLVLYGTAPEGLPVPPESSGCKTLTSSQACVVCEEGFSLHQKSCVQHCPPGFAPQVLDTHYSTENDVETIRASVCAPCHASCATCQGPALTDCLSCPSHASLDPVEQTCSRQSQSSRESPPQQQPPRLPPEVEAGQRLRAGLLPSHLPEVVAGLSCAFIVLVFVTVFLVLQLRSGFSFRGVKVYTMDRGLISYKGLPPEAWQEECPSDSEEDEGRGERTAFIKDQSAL
- Test summary: furin cleavage Z-score vs untreated control; higher = more cleavage, active = 3.5 or more, inactive = 1 or less, 8 variable residues between constant flanks
- Condition description: 7.5 min
The list shows a part of the results. How many sequences the whole screen found active is unknown.
Measure name: furin cleavage Z-score
One number for each entry.

Worked cases, answers included:
CARFKRLACMAGNASASA [FS-2488]: 1.67
CAQEKRSVFQAGNASASA [FS-2249]: -0.752
CAPGALVVGVAGNASASA [HC1105]: -0.0947

q: May I ask what furin cleavage Z-score has been recorded for CATFDRLQVLAGNASASA [HC1397] ?
a: -1.63
